# tgt: Human Nav1.5 (Homo sapiens, UniProt Q14524)
# Construct: expressed in transfected cells; host or cells: HEK293
# Sequence (Q14524 whole entry): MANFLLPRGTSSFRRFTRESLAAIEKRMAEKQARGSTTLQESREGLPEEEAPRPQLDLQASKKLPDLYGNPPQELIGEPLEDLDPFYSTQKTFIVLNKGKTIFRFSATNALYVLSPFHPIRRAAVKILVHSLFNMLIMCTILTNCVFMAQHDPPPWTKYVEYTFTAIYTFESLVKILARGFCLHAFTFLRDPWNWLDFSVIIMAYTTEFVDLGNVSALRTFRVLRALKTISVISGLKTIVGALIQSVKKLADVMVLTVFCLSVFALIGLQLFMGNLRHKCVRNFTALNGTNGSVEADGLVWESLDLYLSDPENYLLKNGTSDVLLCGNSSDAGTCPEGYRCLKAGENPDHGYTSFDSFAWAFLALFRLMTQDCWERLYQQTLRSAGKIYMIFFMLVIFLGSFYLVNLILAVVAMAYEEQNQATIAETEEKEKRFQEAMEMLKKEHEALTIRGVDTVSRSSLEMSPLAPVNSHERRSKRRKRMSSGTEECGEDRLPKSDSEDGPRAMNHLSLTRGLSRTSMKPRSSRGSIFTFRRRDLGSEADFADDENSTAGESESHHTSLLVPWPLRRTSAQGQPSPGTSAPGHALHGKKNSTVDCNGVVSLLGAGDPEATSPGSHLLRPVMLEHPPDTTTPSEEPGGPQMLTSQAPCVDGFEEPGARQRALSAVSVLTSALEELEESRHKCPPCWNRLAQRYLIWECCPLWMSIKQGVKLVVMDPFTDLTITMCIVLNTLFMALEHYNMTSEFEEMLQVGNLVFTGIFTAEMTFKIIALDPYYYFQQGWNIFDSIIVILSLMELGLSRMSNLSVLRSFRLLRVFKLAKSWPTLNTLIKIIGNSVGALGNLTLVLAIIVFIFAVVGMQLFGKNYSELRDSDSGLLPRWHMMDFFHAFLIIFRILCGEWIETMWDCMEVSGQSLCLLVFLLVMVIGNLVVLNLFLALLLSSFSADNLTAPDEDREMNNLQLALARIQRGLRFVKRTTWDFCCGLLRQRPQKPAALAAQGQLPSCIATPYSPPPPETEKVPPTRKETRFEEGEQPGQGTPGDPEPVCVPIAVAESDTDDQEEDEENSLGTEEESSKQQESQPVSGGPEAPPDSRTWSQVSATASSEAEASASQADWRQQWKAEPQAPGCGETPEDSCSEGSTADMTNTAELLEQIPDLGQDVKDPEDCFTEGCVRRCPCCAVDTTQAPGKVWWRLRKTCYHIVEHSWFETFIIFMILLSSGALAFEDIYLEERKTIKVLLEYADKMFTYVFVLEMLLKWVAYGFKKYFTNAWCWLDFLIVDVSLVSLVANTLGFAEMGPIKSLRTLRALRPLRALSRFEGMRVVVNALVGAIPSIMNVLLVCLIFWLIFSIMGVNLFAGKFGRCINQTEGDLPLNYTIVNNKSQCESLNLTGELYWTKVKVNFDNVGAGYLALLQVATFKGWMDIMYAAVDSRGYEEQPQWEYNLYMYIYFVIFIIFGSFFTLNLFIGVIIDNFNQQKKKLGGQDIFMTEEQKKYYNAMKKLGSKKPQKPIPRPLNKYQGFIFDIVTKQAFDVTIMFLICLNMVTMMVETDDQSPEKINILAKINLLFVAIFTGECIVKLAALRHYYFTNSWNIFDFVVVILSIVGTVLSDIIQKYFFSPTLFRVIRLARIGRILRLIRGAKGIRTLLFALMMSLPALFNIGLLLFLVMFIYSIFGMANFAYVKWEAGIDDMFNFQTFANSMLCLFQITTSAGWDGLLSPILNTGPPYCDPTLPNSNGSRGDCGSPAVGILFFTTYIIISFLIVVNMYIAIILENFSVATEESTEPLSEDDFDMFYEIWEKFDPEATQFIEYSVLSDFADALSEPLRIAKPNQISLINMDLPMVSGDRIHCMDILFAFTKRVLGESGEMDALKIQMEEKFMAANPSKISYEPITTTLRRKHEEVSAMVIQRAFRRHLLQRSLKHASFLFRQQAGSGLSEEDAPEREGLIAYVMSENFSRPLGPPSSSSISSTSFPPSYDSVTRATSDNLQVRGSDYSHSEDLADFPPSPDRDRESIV
# assayDetails: Nav1.5 Assay (VIPR, HEK293 cells)
# Assay type: cell-based
# settings: HEK293 cells expressing Human Nav1.5; average of replicates; read-out: Nav1.5 IC50
Lab note: anything with IC50 below 20 µM is marked 1 (yes); values at 20 µM or higher are marked 0 (no).

Some solved cases for reference:
{"cpdSmiles": "Cn1nccc1C(=O)Nc1ccc(-c2ccccc2OCC(F)(F)F)c(N)n1", "label": "0 (no)"}
{"cpdSmiles": "Cc1nocc1C(=O)Nc1ccc(-c2cc(F)ccc2OC(F)(F)F)c(N)n1", "label": "1 (yes)"}
{"cpdSmiles": "Cn1nccc1C(=O)Nc1ccc(-c2cc(Cl)ccc2Cl)c(N)n1", "label": "1 (yes)"}

Data request: Confirm or reject: IC50 of `COCc1ccc(Cl)c(-c2ccc(NC(=O)c3conc3C)nc2N)c1` lies strictly below 20 µM
Data returned: 0 (no)

Data request: For this compound, is IC50 lower than 20 µM? `COc1cc(Cl)c(Cl)c(-c2ccc(NC(=O)c3ccnn3C)nc2N)c1`
Data returned: 1 (yes)

Data request: # check: IC50 < 20 µM for `COCCOc1ccccc1-c1ccc(NC(=O)c2conc2C)nc1N`
Data returned: 0 (no)

Data request: # strict comparison: is reported IC50 < 20 µM? input = `Cn1ccc(C(=O)Nc2ccc(-c3cc(Cl)cc(Cl)c3Cl)c(N)n2)n1`
Data returned: 0 (no)

Data request: Field: below-cutoff. Rule: recorded IC50 strictly less than 20 µM. Subject: `COCCOc1ccc(Cl)c(-c2ccc(NC(=O)c3ccnn3C)nc2N)c1`
Data returned: 0 (no)

Data request: Answer whether the compound `Cc1nocc1C(=O)Nc1ccc(-c2cc(O)ccc2Cl)c(N)n1` has IC50 strictly less than 20 µM
Data returned: 0 (no)

Data request: I'd appreciate it if you could check whether `Cn1nccc1C(=O)Nc1ccc(-c2ccccc2Cl)c(N)n1` has IC50 smaller than 20 µM.
Data returned: 0 (no)

###

# tgt: Human Nav1.8 (Homo sapiens, UniProt Q9Y5Y9)
# Construct: expressed in transfected cells; host or cells: HEK293
# Sequence (Q9Y5Y9 whole entry): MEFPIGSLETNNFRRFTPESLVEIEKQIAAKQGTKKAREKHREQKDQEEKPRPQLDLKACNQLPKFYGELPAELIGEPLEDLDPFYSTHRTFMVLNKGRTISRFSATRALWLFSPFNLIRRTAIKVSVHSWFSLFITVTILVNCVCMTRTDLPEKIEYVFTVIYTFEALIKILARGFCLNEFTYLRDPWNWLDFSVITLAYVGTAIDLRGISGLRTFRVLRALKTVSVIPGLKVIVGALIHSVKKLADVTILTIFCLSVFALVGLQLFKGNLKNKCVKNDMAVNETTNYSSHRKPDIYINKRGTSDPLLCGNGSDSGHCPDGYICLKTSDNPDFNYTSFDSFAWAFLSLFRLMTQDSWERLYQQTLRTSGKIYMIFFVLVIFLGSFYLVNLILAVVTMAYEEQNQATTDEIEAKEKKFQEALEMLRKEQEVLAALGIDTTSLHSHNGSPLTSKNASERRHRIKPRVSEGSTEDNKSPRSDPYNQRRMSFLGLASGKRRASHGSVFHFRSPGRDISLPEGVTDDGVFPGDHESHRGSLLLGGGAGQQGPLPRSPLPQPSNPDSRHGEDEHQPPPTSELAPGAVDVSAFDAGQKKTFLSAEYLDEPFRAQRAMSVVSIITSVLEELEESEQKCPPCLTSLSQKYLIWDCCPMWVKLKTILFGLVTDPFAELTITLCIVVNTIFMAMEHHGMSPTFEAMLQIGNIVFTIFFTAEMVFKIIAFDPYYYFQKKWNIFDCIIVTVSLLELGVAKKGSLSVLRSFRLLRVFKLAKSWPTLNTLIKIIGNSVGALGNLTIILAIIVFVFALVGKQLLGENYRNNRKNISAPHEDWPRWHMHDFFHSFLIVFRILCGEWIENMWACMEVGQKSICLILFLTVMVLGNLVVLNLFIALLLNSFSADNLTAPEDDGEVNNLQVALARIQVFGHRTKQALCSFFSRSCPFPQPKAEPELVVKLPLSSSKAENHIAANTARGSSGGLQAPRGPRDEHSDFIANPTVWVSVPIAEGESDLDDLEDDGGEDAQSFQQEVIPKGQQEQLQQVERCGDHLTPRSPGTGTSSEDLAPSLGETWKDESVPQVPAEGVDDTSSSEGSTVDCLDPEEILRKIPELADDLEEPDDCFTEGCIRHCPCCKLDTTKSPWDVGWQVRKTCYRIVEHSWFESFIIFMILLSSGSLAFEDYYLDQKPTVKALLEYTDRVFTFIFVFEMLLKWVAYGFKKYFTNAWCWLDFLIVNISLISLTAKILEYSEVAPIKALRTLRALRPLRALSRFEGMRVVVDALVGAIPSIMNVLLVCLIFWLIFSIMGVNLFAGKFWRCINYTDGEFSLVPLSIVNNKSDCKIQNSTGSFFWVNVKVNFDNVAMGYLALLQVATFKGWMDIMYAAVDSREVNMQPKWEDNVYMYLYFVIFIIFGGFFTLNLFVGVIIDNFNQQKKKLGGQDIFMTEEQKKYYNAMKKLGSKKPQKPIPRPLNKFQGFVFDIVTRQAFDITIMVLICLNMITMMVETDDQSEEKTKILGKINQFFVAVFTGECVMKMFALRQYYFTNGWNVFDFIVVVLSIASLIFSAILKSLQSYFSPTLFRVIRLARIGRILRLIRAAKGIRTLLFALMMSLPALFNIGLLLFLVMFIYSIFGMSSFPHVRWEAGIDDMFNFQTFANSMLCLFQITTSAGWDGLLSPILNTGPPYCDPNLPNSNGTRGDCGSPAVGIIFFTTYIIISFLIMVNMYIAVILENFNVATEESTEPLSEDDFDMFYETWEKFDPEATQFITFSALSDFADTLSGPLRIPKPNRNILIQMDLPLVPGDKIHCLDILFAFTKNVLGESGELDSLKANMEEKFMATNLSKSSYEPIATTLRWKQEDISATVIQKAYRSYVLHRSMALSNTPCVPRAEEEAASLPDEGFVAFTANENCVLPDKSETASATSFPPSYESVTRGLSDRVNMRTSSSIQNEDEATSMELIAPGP
# assayDetails: VIPR Assay for Nav1.8 Compounds (FRET membrane potential, deltamethrin opener)
# Type: cell-based
# settings: VIPR FRET membrane potential assay, deltamethrin opener; average of replicates; read-out: Nav1.8 IC50
measuredMetric: pIC50
Answers are plain numbers, as −log10 of the molar value.

{"cpdSmiles": "Cn1nccc1C(=O)Nc1ccc(-c2ccccc2OC(F)(F)F)c(N)n1", "pIC50": 5.62}
{"cpdSmiles": "Cn1nccc1C(=O)Nc1ccc(-c2cc(F)ccc2C(F)(F)F)c(N)n1", "pIC50": 5.52}
{"cpdSmiles": "Cc1nocc1C(=O)Nc1ccc(-c2ccccc2OCC(F)(F)F)c(N)n1", "pIC50": 6.39}

# map each compound to its pIC50
1. Cc1ccc(OC(F)(F)F)c(-c2ccc(NC(=O)c3ccnn3C)nc2N)c1
2. COCc1ccc(Cl)c(-c2ccc(NC(=O)c3ccnn3C)nc2N)c1
3. Cc1oncc1C(=O)Nc1ccc(-c2ccccc2OC(F)(F)F)c(N)n1
4. CCCOc1ccc(F)cc1-c1ccc(NC(=O)c2conc2C)nc1N
5. Cn1nccc1C(=O)Nc1ccc(-c2cc(OC(F)(F)F)ccc2Cl)c(N)n1

Data returned:
5.92
5.27
5.80
7.05
5.80
